# System: MV4-11 cells
# Assay Info: Inhibition of proliferation of MV4-11 cells (CellTiter-Glo)
# Format: cell-based
# Condition Details: Homo sapiens, 72 h
Here the recorded IC50 is given for each entry.

Compound: Cc1cc(F)cc(C)c1Oc1ccc(C(C)(C)O)cc1-c1cn(C)c(=O)c2cc(C(=O)NCCCCNC(=O)COc3cccc4c3C(=O)N(C3CCC(=O)NC3=O)C4=O)[nH]c12 (stereo not drawn)
IC50: < 1.5 nM
--
Compound: CCNC(=O)c1cc2c(=O)n(C)cc(-c3cc(C(C)(C)O)ccc3Oc3c(C)cc(F)cc3C)c2[nH]1 [compound 1, reference compound]
IC50: 2.3 nM
--
Compound: Cc1cc(F)cc(C)c1Oc1ccc(C(C)(C)O)cc1-c1cn(C)c(=O)c2cc(C(=O)NCC(F)F)[nH]c12
IC50: 20.4 nM
--
Compound: Cc1cc(F)cc(C)c1Oc1ccc(C(C)(C)O)cc1-c1cn(C)c(=O)c2cc(C(=O)NC(CF)CF)[nH]c12
IC50: 4.8 nM
--
Compound: Cc1cc(F)cc(C)c1Oc1ccc(C(C)(C)O)cc1-c1cn(C)c(=O)c2cc(C(=O)NCCS(C)(=O)=O)[nH]c12
IC50: 19.8 nM
--
Compound: Cc1cc(F)cc(C)c1Oc1ccc(C(C)(C)O)cc1-c1cn(C)c(=O)c2cc(C(=O)NCCCC#Cc3cccc4c3CN(C3CCC(=O)NC3=O)C4=O)[nH]c12 (stereo not drawn)
IC50: < 1.5 nM

###

# Assay Info: In vivo pharmacokinetics in mice
# Condition Details: male, Balb c, mouse, plasma, po, gavage, 5 mg/kg
Observation Type: half-life

Compound: Cc1cc(F)cc(C)c1Oc1ccc(C(C)(C)O)cc1-c1cn(C)c(=O)c2cc(C(=O)NC3CC(F)(F)C3)[nH]c12
Observed: > 3 h
//
Compound: CCNC(=O)c1cc2c(=O)n(C)cc(-c3cc(C(C)(C)O)ccc3Oc3c(C)cc(F)cc3C)c2[nH]1 [compound 1, reference compound]
Observed: > 3 h

###

# Tested System: CYP1A2 (Homo sapiens)
# Sequence (P05177 1-516): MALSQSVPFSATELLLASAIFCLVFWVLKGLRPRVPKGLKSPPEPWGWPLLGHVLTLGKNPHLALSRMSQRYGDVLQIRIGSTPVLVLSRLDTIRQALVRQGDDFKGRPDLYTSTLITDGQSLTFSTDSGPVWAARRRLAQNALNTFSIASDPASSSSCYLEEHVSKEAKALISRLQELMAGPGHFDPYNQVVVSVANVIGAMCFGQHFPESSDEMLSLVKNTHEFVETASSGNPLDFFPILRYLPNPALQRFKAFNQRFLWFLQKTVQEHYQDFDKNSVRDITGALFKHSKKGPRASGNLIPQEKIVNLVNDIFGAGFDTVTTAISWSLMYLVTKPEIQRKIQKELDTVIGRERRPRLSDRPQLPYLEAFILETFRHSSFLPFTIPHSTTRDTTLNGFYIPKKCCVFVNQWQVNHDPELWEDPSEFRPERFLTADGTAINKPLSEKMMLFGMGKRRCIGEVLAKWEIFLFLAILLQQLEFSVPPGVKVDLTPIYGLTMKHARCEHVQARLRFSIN
Observation Type: IC50

Molecule: Cc1cc(F)cc(C)c1Oc1ccc(C(C)(C)O)cc1-c1cn(C)c(=O)c2cc(C(=O)NC3CC(F)(F)C3)[nH]c12
Tested System: CYP1A2 (Homo sapiens)
Observed: > 15 µM

Molecule: CCNC(=O)c1cc2c(=O)n(C)cc(-c3cc(C(C)(C)O)ccc3Oc3c(C)cc(F)cc3C)c2[nH]1 [compound 1, reference compound]
Tested System: CYP1A2 (Homo sapiens)
Observed: > 15 µM
